biological target: MOZ-KAT6A (Homo sapiens, UniProt Q92794, A567V); construct: encoding amino acid residues 507 to 778 (Uniprot Q92794-1) of human KAT6A; made in house; host or cells: E. coli BL21 DE3; assay: Acetyltransferase biochemical assay (AlphaScreen), KAT6A; details: Table 2 (MOZ-KAT6A); 10 μM Acetyl coenzyme A, histone H3.1, 5 nM enzyme
Sequence (Q92794 507-778 A567V limits assumed): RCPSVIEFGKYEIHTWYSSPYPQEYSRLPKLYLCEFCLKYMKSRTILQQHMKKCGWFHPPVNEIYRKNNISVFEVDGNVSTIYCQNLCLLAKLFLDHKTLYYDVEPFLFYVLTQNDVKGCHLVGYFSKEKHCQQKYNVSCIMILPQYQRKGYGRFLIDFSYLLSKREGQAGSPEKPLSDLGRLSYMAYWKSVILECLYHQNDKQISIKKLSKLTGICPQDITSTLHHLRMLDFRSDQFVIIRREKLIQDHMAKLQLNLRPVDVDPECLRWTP
endpoint-label: IC50 (µM)

- compound: "COc1ccc2c(c1)S(=O)(=O)NC(C(=O)NCC(c1ccccc1)c1ccccc1)=N2"
  IC50 [µM]: 1.35

[A] O=C(NCC(O)c1ccccc1)C1=Nc2ccc(Br)cc2S(=O)(=O)N1 (centres unmarked)
[B] O=C(NCC(c1ccccc1)c1ncco1)C1=Nc2ccccc2S(=O)(=O)N1 (centres unmarked) [Example 46]
(Q) Which is greater in IC50, the first item A or the second item B ? Record your answer as the label of the chosen record.
(A) A

[P] O=C(NCCc1ccccc1)C1=Nc2ccc(Br)cc2S(=O)(=O)N1
[Q] CC(=O)c1ccc2c(c1)S(=O)(=O)NC(C(=O)NCC(c1ccccc1)c1ncco1)=N2 (centres unmarked)
(Q) Which is greater in IC50, the first item P or the second item Q ? Record your answer as the label of the chosen record.
(A) P
(P: 3.74 µM, Q: 0.243 µM)
